Cited source for all entries: paper PMC10397247

# subject of test: T1, 4H1348-AA
# T1 chain: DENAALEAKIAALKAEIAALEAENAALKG
# assay remarks: two-hybrid library CCmax;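 further: natural log of median RNA to DNA barcode read ratio; higher means stronger binding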
# assay conditions: mean of both orientations
property: interaction score

# binder, interaction score
data = [
    ("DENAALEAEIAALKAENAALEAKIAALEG [4H1109-AA]", -1.31),
]

I = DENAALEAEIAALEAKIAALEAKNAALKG [4H1064-AA]
II = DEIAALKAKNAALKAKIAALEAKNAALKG [4H1000-AA]
Ask: Given the listed records, identify the one among I and II with higher interaction score. Kindly give the label for the entry you pick.
Result: I

P = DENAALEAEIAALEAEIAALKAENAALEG [4H1035-AA]
Q = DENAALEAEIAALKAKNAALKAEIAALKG [4H1146-AA]
Ask: Given the listed records, identify the one among P and Q with higher interaction score. Which one? Tell me its label.
Result: P
(P: 1.45, Q: -1.15)
